# assay-context: human, 10 μM
observation-type: Plasma Stability 240 min hum (%)

| item-smiles | observation-type | recorded-result |
| --- | --- | --- |
| CN1CC(=O)N2C[C@H](NC(=O)Cc3ccc4ccccc4c3)C[C@H]2COc2ccc(cc2)C(=O)N(C)[C@H](C(=O)N2CCCC2)CCC1=O | Plasma Stability 240 min hum | 94 |
| CCN(CC)[C@@H]1C[C@H]2COc3ccc(cc3)C(=O)N(C)[C@H](C(=O)NCc3ccc4ccccc4c3)CCC(=O)N(C)CC(=O)N2C1 | Plasma Stability 240 min hum | 100 |
| CN(C)CCNC(=O)[C@@H]1CCC(=O)N(C)CC(=O)N2C[C@@H](NC(=O)Cc3c[nH]c4ccccc34)C[C@H]2COc2ccc(F)cc2C(=O)N1C | Plasma Stability 240 min hum | 100 |
| CCN(CC)[C@H]1C[C@H]2COc3ccc(F)cc3C(=O)N(C)[C@H](C(=O)N3CCCC3)CCC(=O)N(C)CC(=O)N2C1 | Plasma Stability 240 min hum | 82 |
| CN(C)CCNC(=O)[C@@H]1CCC(=O)N(C)CC(=O)N2C[C@@H](NC(=O)Cc3cccc4ccccc34)C[C@H]2COc2ccc(F)cc2C(=O)N1C | Plasma Stability 240 min hum | 83 |
| CC(=O)N[C@H]1C[C@H]2COc3ccc(F)cc3C(=O)N(C)[C@H](C(=O)NCCc3c[nH]c4ccccc34)CCC(=O)N(C)CC(=O)N2C1 | Plasma Stability 240 min hum | 99 |
| CN1CC(=O)N2C[C@H](NC(=O)CCC(=O)O)C[C@H]2COc2ccc(cc2)C(=O)N(C)[C@H](C(=O)NCc2ccncc2)CCC1=O | Plasma Stability 240 min hum | 75 |
| CN1CC(=O)N2C[C@@H](NC(=O)Cc3c[nH]c4ccccc34)C[C@H]2COc2ccc(F)cc2C(=O)N(C)[C@H](C(=O)NCCc2c[nH]c3ccccc23)CCC1=O | Plasma Stability 240 min hum | 99 |
| CC(=O)N[C@H]1CN(C)C(=O)c2cccc(c2)OC[C@@H]2C[C@H](NC(=O)CN(C)C)CN2C(=O)CN(C)C1=O | Plasma Stability 240 min hum | 98 |
| CN1CC(=O)N2C[C@H](NC(=O)CCc3ccncc3)C[C@H]2COc2ccc(cc2)C(=O)N(C)[C@H](C(=O)NCc2ccc3ccccc3c2)CCC1=O | Plasma Stability 240 min hum | 100 |
| CN1CCC[C@H](NC(=O)OCc2ccccc2)C(=O)N2C[C@@H](NC(=O)Cc3ccc4ccccc4c3)C[C@H]2COc2cccc(c2)C1=O | Plasma Stability 240 min hum | 66 |
| CN1CC(=O)N2C[C@@H](NC(=O)CCC(=O)O)C[C@H]2COc2ccc(F)cc2C(=O)N(C)[C@@H](C(=O)NCc2ccc3ccccc3c2)CCC1=O | Plasma Stability 240 min hum | 100 |
| CN1CC(=O)N2C[C@@H](NC(=O)CN3CCCC3)C[C@H]2COc2ccc(F)cc2C(=O)N(C)[C@@H](C(=O)N2CCCC2)CCC1=O | Plasma Stability 240 min hum | 100 |
| CN1CC(=O)N2C[C@@H](N)C[C@H]2COc2ccc(F)cc2C(=O)N(C)[C@@H](C(=O)NCc2ccc3ccccc3c2)CCC1=O | Plasma Stability 240 min hum | 96 |
| CN1C[C@H](NC(=O)OCc2ccccc2)C(=O)N(C)CC(=O)N2C[C@@H](NC(=O)Cc3c[nH]c4ccccc34)C[C@H]2COc2cccc(c2)C1=O | Plasma Stability 240 min hum | 91 |
| CN(C)CCNC(=O)[C@H]1CCC(=O)N(C)CC(=O)N2CCN(C(=O)Cc3ccc4ccccc4c3)C[C@@H]2COc2ccc(F)cc2C(=O)N1C | Plasma Stability 240 min hum | 89 |
